// reported Vd for each item listed
method-description: Volume of distribution at steady state in male Wistar rat plasma at 0.5 mg/kg, iv measured after 24 hrs by LC/-MS/MS analysis
Assay type: ADME, organism-based
condition-parameters: read-out: Vdss
Give the quantity in L/kg, number only.

structure | Vd [L/kg]
COc1cc(S(C)(=O)=O)ccc1Nc1nc2ccc(-c3ccc(NC(=O)[C@H](C)c4ccc(F)cc4)cc3)cn2n1 | 2.4

Query: Item COc1ccc(Oc2cc(NCCC(F)(F)F)c3ncc(-c4ccc(C(=O)NC5CC5)c(C)c4)n3n2)c(F)c1F : provide Vd
Response: 2.2

----------
Tested on: OPM-2
method-description: Antiproliferative activity against human OPM-2 cells assessed as cell growth inhibition incubated for 96 hrs by crystal violet staining
condition-parameters: OPM-2, 96 h
quantity-measured: pIC50
Worth noting: pIC50 values are minus log10 of concentrations stated in mol/L.

Query: GET pIC50 | system: OPM-2 | item: COc1cc(S(C)(=O)=O)ccc1Nc1nc2ccc(-c3ccc(NC(=O)[C@H](C)c4ccc(F)cc4)cc3)cn2n1
Response: 6.89

----------
Test system: HT-1080
method-description: Antiproliferative activity against human HT-1080 cells assessed as cell growth inhibition incubated for 96 hrs by MTS assay
Format: functional, cell-based
condition-parameters: HT-1080, 96 h
quantity-measured: IC50 (nM)
Could you give me the number in nM? Just the number is fine.

Query: Give recorded IC50. COc1cc(S(C)(=O)=O)ccc1Nc1nc2ccc(-c3ccc(NC(=O)[C@H](C)c4ccc(F)cc4)cc3)cn2n1
Response: 450

----------
Test system: NCI-H28
method-description: Antiproliferative activity against human NCI-H28 cells assessed as cell growth inhibition incubated for 96 hrs by crystal violet staining
condition-parameters: NCI-H28, 96 h
quantity-measured: IC50 (nM)
Record the value in nM, omitting the unit from your answer.

Query: Tell me measured IC50 for COc1cc(S(C)(=O)=O)ccc1Nc1nc2ccc(-c3ccc(NC(=O)[C@H](C)c4ccc(F)cc4)cc3)cn2n1 please.
Response: 110

----------
System: NCI-H526
method-description: Antiproliferative activity against human NCI-H526 cells assessed as cell growth inhibition incubated for 96 hrs by MTS assay
Assay type: functional, cell-based
condition-parameters: NCI-H526, 96 h
quantity-measured: pIC50
Here pIC50 is given on a logarithmic scale as minus log10 of the concentration in mol/L.

Query: Specify pIC50 for COc1cc(S(C)(=O)=O)ccc1Nc1nc2ccc(-c3ccc(NC(=O)[C@H](C)c4ccc(F)cc4)cc3)cn2n1 and stop.
Response: 7.00

----------
method-description: Oral bioavailability in female NMRI mouse plasma at 1 mg/kg measured after 24 hrs by LC/-MS/MS analysis
quantity-measured: bioavailability (%)
Your answer is read as %, so omit the unit and give the number.

structure | bioavailability (%)
COc1ccc(Oc2cc(NCCC(F)(F)F)c3ncc(-c4ccc(C(=O)NC5CC5)c(C)c4)n3n2)c(F)c1F | 37

Note: attention shifts to another entry.
Query: Given COc1cc(S(C)(=O)=O)ccc1Nc1nc2ccc(-c3ccc(NC(=O)[C@H](C)c4ccc(F)cc4)cc3)cn2n1 , respond with its bioavailability.
Response: 59

----------
System: NCI-H1155
method-description: Antiproliferative activity against human NCI-H1155 cells assessed as cell growth inhibition incubated for 96 hrs by crystal violet staining
condition-parameters: NCI-H1155, 96 h
quantity-measured: pIC50
Remember the convention: pIC50 equals -log10 of concentration in molar.

Query: Query pIC50 for COc1cc(S(C)(=O)=O)ccc1Nc1nc2ccc(-c3ccc(NC(=O)[C@H](C)c4ccc(F)cc4)cc3)cn2n1 [BAY-1161909]
Response: 5.85
